Reference for the values: patent US20240083839A1

Test system: SirT1 levels in N2a-E4 cells
RUN_DESCRIPTION: SirT1 levels by AlphaLISA in ApoE4-transfected N2a cells
Assay type: cell-based, murine
Counter-ions that a name gives are not always drawn.
TEST_READOUT: SirT1 SμM

>  <COMPOUND>
C[C@H](N)C(=O)NC1Cc2ccccc2C1 [MP-56]

>  <TEST_READOUT>
SirT1 SμM

>  <OBSERVED_RESULT>
A (A >20%)

$$$$
>  <COMPOUND>
CC(N)C(=O)OC(C)(C)Cc1ccc(F)cc1 (stereo not drawn) [MP-04]

>  <TEST_READOUT>
SirT1 SμM

>  <OBSERVED_RESULT>
A (A >20%)

$$$$
>  <COMPOUND>
COC(=O)N[C@H]1Cc2ccccc2CNC1=O [MP-70]

>  <TEST_READOUT>
SirT1 SμM

>  <OBSERVED_RESULT>
A, A (A >20%)

$$$$
>  <COMPOUND>
C[C@H](NC(=O)OC(C)(C)C)C(=O)O[C@H]1CCC[C@H]1c1ccc(Cl)cc1 (single isomer, unassigned) [MP-92]

>  <TEST_READOUT>
SirT1 SμM

>  <OBSERVED_RESULT>
a, a (a <250%)

$$$$
>  <COMPOUND>
C[C@@H](N)C(=O)NC(C)(C)Cc1cc(F)cc(F)c1 [MP-44]

>  <TEST_READOUT>
SirT1 SμM

>  <OBSERVED_RESULT>
a (a <250%)

$$$$
>  <COMPOUND>
CC(C)(Cc1ccc(Cl)cc1)OC(=O)CN [MP-07]

>  <TEST_READOUT>
SirT1 SμM

>  <OBSERVED_RESULT>
A (A >20%)

$$$$
>  <COMPOUND>
C#Cc1ccc(CC(C)(C)NC(=O)[C@H](C)N)cc1 [MP-59]

>  <TEST_READOUT>
SirT1 SμM

>  <OBSERVED_RESULT>
A, A (A >20%)

$$$$
>  <COMPOUND>
C[C@H](N)C(=O)NC1CCc2ccccc2NC1=O (stereo partly drawn) [MP-84, hydrochloride]

>  <TEST_READOUT>
SirT1 SμM

>  <OBSERVED_RESULT>
a (a <250%)

$$$$
>  <COMPOUND>
CC(C)CC(N)C(=O)OC(C)(C)Cc1ccc(Cl)cc1 (stereo not drawn) [MP-05]

>  <TEST_READOUT>
SirT1 SμM

>  <OBSERVED_RESULT>
A (A >20%)

$$$$
>  <COMPOUND>
CC(N)C(=O)OC1(Cc2ccc(Cl)cc2)CCCCC1 (stereo not drawn) [MP-10]

>  <TEST_READOUT>
SirT1 SμM

>  <OBSERVED_RESULT>
A (A >20%)

$$$$
>  <COMPOUND>
C[C@H](N)C(=O)OC(C)(C)Cc1ccc(Cl)cc1 [MP-41]

>  <TEST_READOUT>
SirT1 SμM

>  <OBSERVED_RESULT>
A, A (A >20%)

$$$$
>  <COMPOUND>
C[C@H](N)C(=O)O[C@H]1CCC[C@H]1c1ccc(Cl)cc1.Cl (single isomer, unassigned) [MP-94]

>  <TEST_READOUT>
SirT1 SμM

>  <OBSERVED_RESULT>
a (a <250%)

$$$$
>  <COMPOUND>
O=C(N[C@H]1Cc2ccccc2CNC1=O)OCC1c2ccccc2-c2ccccc21 [MP-74]

>  <TEST_READOUT>
SirT1 SμM

>  <OBSERVED_RESULT>
a, a (a <250%)

$$$$
>  <COMPOUND>
C[C@H](N)CC(=O)OC(C)(C)Cc1ccc(Cl)cc1 [MP-18]

>  <TEST_READOUT>
SirT1 SμM

>  <OBSERVED_RESULT>
a (a <250%)

$$$$
>  <COMPOUND>
C[C@@H](N)C(=O)OC1(Cc2ccc(Cl)cc2)CCNCC1 (stereo in doubt) [MP-49]

>  <TEST_READOUT>
SirT1 SμM

>  <OBSERVED_RESULT>
A (A >20%)

$$$$
>  <COMPOUND>
C[C@H](N)C(=O)NC(C)(C)Cc1ccc(C(F)(F)F)cc1 [MP-78, hydrochloride]

>  <TEST_READOUT>
SirT1 SμM

>  <OBSERVED_RESULT>
A (A >20%)

$$$$
>  <COMPOUND>
C[C@H](N)C(=O)NC(C)(Cc1ccc(F)cc1)Cc1ccc(F)cc1 [MP-51]

>  <TEST_READOUT>
SirT1 SμM

>  <OBSERVED_RESULT>
A (A >20%)

$$$$
>  <COMPOUND>
C[C@H](NC(=O)OC(C)(C)C)C(=O)N(C)[C@H]1CCC(c2ccc(Cl)c(Cl)c2)c2ccccc21 (stereo in doubt) [MP-80]

>  <TEST_READOUT>
SirT1 SμM

>  <OBSERVED_RESULT>
a, a (a <250%)

$$$$
>  <COMPOUND>
C[C@H](N)C(=O)OC1(Cc2ccc(Cl)cc2)CCNC1 (single isomer, unassigned) [MP-32]

>  <TEST_READOUT>
SirT1 SμM

>  <OBSERVED_RESULT>
A (A >20%)

$$$$
>  <COMPOUND>
C[C@H](NC(=O)OC(C)(C)C)C(=O)N[C@H]1CCC[C@@H]1c1ccc(Cl)cc1 [MP-85]

>  <TEST_READOUT>
SirT1 SμM

>  <OBSERVED_RESULT>
a, a (a <250%)

$$$$
>  <COMPOUND>
C[C@H](NC(=O)OC(C)(C)C)C(=O)N[C@H]1CCC[C@H]1c1ccc(Cl)cc1 (mixture of isomers) [MP-95]

>  <TEST_READOUT>
SirT1 SμM

>  <OBSERVED_RESULT>
a, a (a <250%)

$$$$
>  <COMPOUND>
CNC(C)C(=O)OC(C)(C)Cc1ccc(Cl)cc1 (stereo not drawn) [MP-23]

>  <TEST_READOUT>
SirT1 SμM

>  <OBSERVED_RESULT>
a, a (a <250%)

$$$$
>  <COMPOUND>
C#CC[C@H](N)C(=O)NC(C)(C)Cc1ccc(Br)cc1 [MP-62]

>  <TEST_READOUT>
SirT1 SμM

>  <OBSERVED_RESULT>
A (A >20%)

$$$$
>  <COMPOUND>
CC(C)(Cc1ccc(Cl)cc1)OC(=O)C1CCCN1 (stereo not drawn) [MP-20]

>  <TEST_READOUT>
SirT1 SμM

>  <OBSERVED_RESULT>
A (A >20%)

$$$$
>  <COMPOUND>
C[C@H](N)C(=O)O[C@@H]1CCC[C@H]1c1ccc(Cl)cc1.Cl (single isomer, unassigned) [MP-90]

>  <TEST_READOUT>
SirT1 SμM

>  <OBSERVED_RESULT>
a, a (a <250%)

$$$$
>  <COMPOUND>
CC(N)C(=O)NC(C)(C)Cc1ccc(Cl)cc1 (stereo not drawn) [MP-15]

>  <TEST_READOUT>
SirT1 SμM

>  <OBSERVED_RESULT>
A (A >20%)

$$$$
>  <COMPOUND>
N[C@@H](CO)C(=O)NCCc1ccc(Cl)cc1 [MP-107]

>  <TEST_READOUT>
SirT1 SμM

>  <OBSERVED_RESULT>
A, A (A >20%)

$$$$
>  <COMPOUND>
C[C@H](Nc1ccccc1-c1ccccc1)C(N)=O [MP-60]

>  <TEST_READOUT>
SirT1 SμM

>  <OBSERVED_RESULT>
A (A >20%)

$$$$
>  <COMPOUND>
CC(=O)c1ccc(CC(C)(C)NC(=O)[C@H](C)N)cc1 [MP-53]

>  <TEST_READOUT>
SirT1 SμM

>  <OBSERVED_RESULT>
A (A >20%)

$$$$
